Origin of the recorded values: patent US10980889B1

- System: P-Akt (S473)
- assay.notes: Cell based AlphaLISA assay, inhibition of P-Akt (S473) in MDA-MB-468 cells (mTORC2 substrate)
- condition.context: Homo sapiens, 4 h, AlphaLisa, two to four hours at 37° C., read-out: pIC50 for Inhibition of mTORC1 and mTORC2 Substrate Phosphorylation p-AKT1/2/3-(S473) (converted)
measurement.kind: IC50

Q) Annotate the molecule CO[C@H]1C[C@@H]2CC[C@@H](C)[C@@](O)(O2)C(=O)C(=O)N2CCCC[C@H]2C(=O)O[C@H]([C@H](C)C[C@@H]2CC[C@@H](OC(=O)N3CCc4nc(N5CCN(CCOCCN6CCN(c7ncc(C(=O)N8CCc9cc(Cn%10nc(-c%11ccc%12oc(N)nc%12c%11)c%11c(N)ncnc%11%10)ccc9C8)cn7)CC6)CC5)ncc4C3)[C@H](OC)C2)C[C@@H](OC)[C@H](C)/C=C(\C)[C@@H](O)[C@@H](OC)C(=O)[C@H](C)C[C@H](C)/C=C/C=C/C=C/1C [Example 129] with its measured IC50.
A) > 1000 nM

Q) Annotate the molecule CO[C@H]1C[C@@H]2CC[C@@H](C)[C@@](O)(O2)C(=O)C(=O)N2CCCC[C@H]2C(=O)O[C@H]([C@H](C)C[C@@H]2CC[C@@H](OC(=O)NCCOCCOCCOCCOCCOCCOCCOCCOCCC(=O)NCc3ccc(Cn4nc(-c5ccc6oc(N)nc6c5)c5c(N)ncnc54)cc3)[C@H](OC)C2)CC(=O)[C@H](C)/C=C(\C)[C@@H](O)[C@@H](OC)C(=O)[C@H](C)C[C@H](C)/C=C/C=C/C=C/1C [Example 35] with its measured IC50.
A) 3.16 to 31.6 nM

Q) Annotate the molecule CO[C@H]1C[C@@H]2CC[C@@H](C)[C@@](O)(O2)C(=O)C(=O)N2CCCC[C@H]2C(=O)O[C@H]([C@H](C)C[C@@H]2CC[C@@H](OC(=O)NCc3cnc(N4CCN(C(=O)CCOCCN5CCN(c6ncc(C(=O)N7CCc8cc(Cn9nc(-c%10ccc%11oc(N)nc%11c%10)c%10c(N)ncnc%109)ccc8C7)cn6)CC5)CC4)nc3)[C@H](OC)C2)C[C@@H](OC)[C@H](C)/C=C(\C)[C@@H](O)[C@@H](OC)C(=O)[C@H](C)C[C@H](C)/C=C/C=C/C=C/1C [Example 114] with its measured IC50.
A) > 1000 nM

Q) Annotate the molecule CO[C@H]1C[C@@H]2CC[C@@H](C)[C@@](O)(O2)C(=O)C(=O)N2CCCC[C@H]2C(=O)O[C@H]([C@H](C)C[C@@H]2CC[C@@H](OC(=O)N3CCc4nc(N5CCN(c6ncc(C(=O)N7CCN(c8ncc(C(=O)N9CCc%10cc(Cn%11nc(-c%12cnc%13[nH]ccc%13c%12)c%12c(N)ncnc%12%11)ccc%10C9)cn8)CC7)cn6)CC5)ncc4C3)[C@H](OC)C2)CC(=O)[C@H](C)/C=C(\C)[C@@H](O)[C@@H](OC)C(=O)[C@H](C)C[C@H](C)/C=C/C=C/C=C/1C [Example 142] with its measured IC50.
A) > 1000 nM

Q) Annotate the molecule CO[C@H]1C[C@@H]2CC[C@@H](C)[C@@](O)(O2)C(=O)C(=O)N2CCCC[C@H]2C(=O)O[C@H]([C@H](C)C[C@@H]2CC[C@@H](O)[C@H](OC)C2)CC(=O)[C@H](C)/C=C(\C)[C@@H](OC(=O)NCc2cnc(N3CCN(C(=O)CCOCCN4CCN(c5ncc(C(=O)N6CCc7cc(Cn8nc(-c9ccc%10oc(N)nc%10c9)c9c(N)ncnc98)ccc7C6)cn5)CC4)CC3)nc2)[C@@H](OC)C(=O)[C@H](C)C[C@H](C)/C=C/C=C/C=C/1C [Example 136] with its measured IC50.
A) 3.16 to 31.6 nM

Q) Annotate the molecule CO[C@H]1C[C@@H]2CC[C@@H](C)[C@@](O)(O2)C(=O)C(=O)N2CCCC[C@H]2C(=O)O[C@H]([C@H](C)C[C@@H]2CC[C@@H](OC(=O)NC3CCN(CC(=O)NCCOCCOCCOCCOCCOCCOCCC(=O)N4CCc5cc(Cn6nc(-c7ccc8oc(N)nc8c7)c7c(N)ncnc76)ccc5C4)CC3)[C@H](OC)C2)C[C@@H](O)[C@H](C)/C=C(\C)[C@@H](O)[C@@H](OC)C(=O)[C@H](C)C[C@H](C)/C=C/C=C/C=C/1C [Example 98] with its measured IC50.
A) 3.16 to 31.6 nM

Q) Annotate the molecule CO[C@H]1C[C@@H]2CC[C@@H](C)[C@@](O)(O2)C(=O)C(=O)N2CCCC[C@H]2C(=O)O[C@H]([C@H](C)C[C@@H]2CC[C@@H](OC(=O)NCc3cnc(N4CCN(c5ncc(C(=O)N6CCN(c7ncc(C(=O)N8CCc9cc(Cn%10nc(-c%11ccc%12oc(N)nc%12c%11)c%11c(N)ncnc%11%10)ccc9C8)cn7)CC6)cn5)CC4)nc3)[C@H](OC)C2)CC(=O)[C@H](C)/C=C(\C)[C@@H](O)[C@@H](OC)C(=O)[C@H](C)C[C@H](C)/C=C/C=C/C=C/1C [Example 139] with its measured IC50.
A) 31.6 to 1000 nM

Q) Annotate the molecule CO[C@H]1C[C@@H]2CC[C@@H](C)[C@@](O)(O2)C(=O)C(=O)N2CCCC[C@H]2C(=O)O[C@H]([C@H](C)C[C@@H]2CC[C@@H](OC(=O)NCCOCCOCCOCCOCCOCCOCCOCCOCCC(=O)NCc3ccc(Cn4nc(-c5ccc6oc(N)nc6c5)c5c(N)ncnc54)cc3)[C@H](OC)C2)C[C@H](N=[N+]=[N-])[C@H](C)/C=C(\C)[C@@H](O)[C@@H](OC)C(=O)[C@H](C)C[C@H](C)/C=C/C=C/C=C/1C [Example 38] with its measured IC50.
A) > 1000 nM

Q) Annotate the molecule CO[C@H]1C[C@@H]2CC[C@@H](C)[C@@](O)(O2)C(=O)C(=O)N2CCCC[C@H]2C(=O)O[C@H]([C@H](C)C[C@@H]2CC[C@@H](OC(=O)NCc3cnc(N4CCN(c5ncc(C(=O)NCCOCCOCCOCCOCCC(=O)N6CCc7cc(Cn8nc(-c9cnc%10[nH]ccc%10c9)c9c(N)ncnc98)ccc7C6)cn5)CC4CO)nc3)[C@H](OC)C2)CC(=O)[C@H](C)/C=C(\C)[C@@H](O)[C@@H](OC)C(=O)[C@H](C)C[C@H](C)/C=C/C=C/C=C/1C (stereo partly drawn) [Example 86] with its measured IC50.
A) 3.16 to 31.6 nM
